Values compiled from ChEMBL document CHEMBL5260810.

- TEST NAME: Cytotoxicity against human RKOE6 cells measured after 3 days
- Format: functional, cell-based
- PROTOCOL CONDITIONS: RKOE6, 72 h

>  <SMILES RECORD>
C/C=C/Cn1cc(-c2cc(OC)c(C(=O)N3CCOCC3)cc2OC)c2cc(C)[nH]c2c1=O

>  <IC50>
5 µM

$$$$

###

- Test system: BT-474
- TEST NAME: Cytotoxicity against human BT-474 cells measured after 8 days
- Assay type: functional, cell-based
- PROTOCOL CONDITIONS: BT-474, 192 h
pIC50: −log10 of the molar value.
Catalogue of molecules with associated pIC50
MEASURED METRIC: pIC50

>  <SMILES RECORD>
C/C=C/Cn1cc(-c2ccc(C(=O)N3CCOCC3)cc2)c2cc[nH]c2c1=O

>  <MEASURED METRIC>
pIC50

>  <RESULT NUMBER>
4.70

$$$$
>  <SMILES RECORD>
C/C=C/Cn1cc(-c2ccc(C(C)(C)O)cc2OC)c2cc[nH]c2c1=O

>  <MEASURED METRIC>
pIC50

>  <RESULT NUMBER>
4.70

$$$$

###

- Tested on: Pfeiffer
- TEST NAME: Cytotoxicity against human Pfeiffer cells measured after 8 days
- Assay type: functional, cell-based
- PROTOCOL CONDITIONS: 192 h

>  <SMILES RECORD>
C/C=C/Cn1cc(-c2ccc(C(C)(C)O)cc2OC)c2cc[nH]c2c1=O

>  <UNIT SYMBOL>
µM

>  <IC50>
6.95

$$$$

###

Catalogue of molecules with associated Kd
- MEASURED TARGET: SWI/SNF-related matrix-associated actin-dependent regulator of chromatin subfamily A member 4 (Homo sapiens, UniProt P51532)
- Sequence (P51532 whole entry, the tested form may be a part): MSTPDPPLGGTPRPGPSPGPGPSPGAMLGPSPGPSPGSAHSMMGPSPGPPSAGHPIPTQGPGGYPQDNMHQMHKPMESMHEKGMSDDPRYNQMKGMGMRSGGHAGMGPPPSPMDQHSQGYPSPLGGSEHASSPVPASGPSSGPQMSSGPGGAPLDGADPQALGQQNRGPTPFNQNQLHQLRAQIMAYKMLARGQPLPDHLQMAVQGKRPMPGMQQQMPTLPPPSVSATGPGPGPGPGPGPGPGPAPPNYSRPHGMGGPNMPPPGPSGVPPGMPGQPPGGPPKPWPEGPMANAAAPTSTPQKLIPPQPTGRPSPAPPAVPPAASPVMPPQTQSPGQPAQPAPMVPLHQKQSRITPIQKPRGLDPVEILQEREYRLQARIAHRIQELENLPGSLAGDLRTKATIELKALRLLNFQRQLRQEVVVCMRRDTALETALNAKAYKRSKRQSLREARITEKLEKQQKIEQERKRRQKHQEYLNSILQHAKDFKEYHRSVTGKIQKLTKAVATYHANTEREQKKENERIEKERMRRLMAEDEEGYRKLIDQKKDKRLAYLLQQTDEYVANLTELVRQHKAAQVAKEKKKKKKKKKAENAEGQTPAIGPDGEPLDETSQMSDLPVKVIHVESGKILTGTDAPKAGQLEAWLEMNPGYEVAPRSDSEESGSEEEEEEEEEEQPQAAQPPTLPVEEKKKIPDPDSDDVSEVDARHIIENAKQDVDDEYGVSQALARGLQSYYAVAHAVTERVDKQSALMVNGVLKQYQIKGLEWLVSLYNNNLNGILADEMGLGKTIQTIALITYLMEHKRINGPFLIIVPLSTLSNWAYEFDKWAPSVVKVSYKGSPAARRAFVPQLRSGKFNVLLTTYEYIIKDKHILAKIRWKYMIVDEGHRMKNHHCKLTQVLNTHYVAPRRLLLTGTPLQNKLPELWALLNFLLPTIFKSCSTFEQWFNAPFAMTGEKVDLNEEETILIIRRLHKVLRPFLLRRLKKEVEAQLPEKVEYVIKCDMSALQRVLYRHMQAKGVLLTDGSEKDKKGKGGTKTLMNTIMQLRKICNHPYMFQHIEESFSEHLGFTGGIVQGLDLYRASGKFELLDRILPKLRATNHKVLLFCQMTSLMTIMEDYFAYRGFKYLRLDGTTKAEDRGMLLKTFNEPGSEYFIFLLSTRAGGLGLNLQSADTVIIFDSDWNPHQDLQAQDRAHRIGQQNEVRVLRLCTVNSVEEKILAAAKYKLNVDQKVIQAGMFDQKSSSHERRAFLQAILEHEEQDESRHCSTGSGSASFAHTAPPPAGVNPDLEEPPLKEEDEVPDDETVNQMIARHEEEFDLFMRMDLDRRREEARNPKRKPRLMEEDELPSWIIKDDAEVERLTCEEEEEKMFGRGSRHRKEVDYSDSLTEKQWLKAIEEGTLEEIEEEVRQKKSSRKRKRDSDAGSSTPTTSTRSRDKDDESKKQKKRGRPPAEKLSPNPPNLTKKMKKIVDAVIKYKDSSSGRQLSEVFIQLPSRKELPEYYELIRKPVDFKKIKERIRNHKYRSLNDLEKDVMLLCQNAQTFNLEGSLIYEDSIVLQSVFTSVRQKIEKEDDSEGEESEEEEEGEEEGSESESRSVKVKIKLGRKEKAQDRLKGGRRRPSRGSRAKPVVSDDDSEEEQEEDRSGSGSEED
- TEST NAME: Binding affinity to human partial length SMARCA4 (A1448 to S1575 residues) expressed in bacterial expression system by BROMOscan assay

>  <SMILES RECORD>
C/C=C/Cn1cc(-c2ccc(C(C)(C)O)cc2OC)c2cc[nH]c2c1=O

>  <Kd>
> 10 µM

$$$$
>  <SMILES RECORD>
C/C=C/Cn1cc(-c2ccc(C(=O)N3CCOCC3)cc2)c2cc[nH]c2c1=O

>  <Kd>
28 µM

$$$$
>  <SMILES RECORD>
C/C=C/Cn1cc(-c2cc(OC)c(C(=O)N3CCOCC3)cc2OC)c2cc(C)[nH]c2c1=O

>  <Kd>
> 10 µM

$$$$
>  <SMILES RECORD>
C/C=C/Cn1cc(-c2cc(OC)c(C(C)(C)O)cc2OC)c2cc(C)[nH]c2c1=O

>  <Kd>
> 10 µM

$$$$

###

- TEST NAME: Cytotoxicity against human UKE-1 cells measured after 8 days
- Type: functional, cell-based
- PROTOCOL CONDITIONS: UKE1, 192 h

>  <SMILES RECORD>
C/C=C/Cn1cc(-c2ccc(C(=O)N3CCOCC3)cc2)c2cc[nH]c2c1=O

>  <UNIT SYMBOL>
µM

>  <IC50>
12.4

$$$$
>  <SMILES RECORD>
C/C=C/Cn1cc(-c2ccc(C(C)(C)O)cc2OC)c2cc[nH]c2c1=O

>  <UNIT SYMBOL>
µM

>  <IC50>
20

$$$$
